tested on: S. cerevisiae vps1Δ apl2Δ growth inhibition, dose response; experiment: growth inhibition of vps1Δ apl2Δ yeast, dose response, post-Golgi transport modulator project, S. cerevisiae, background strain comparison (AID 788)
Activity calls are given as the source filed them. No rule for the calls is given here.
Outcome field: choose from active, inactive

-- ask Each compound tested received a call. Report the one for Cc1ccc(-c2csc3nnc(SCC(=O)Nc4cccc(C)n4)n23)cc1 .
-- reply inactive

-- ask Each compound tested received a call. Report the one for CCN(CC)c1nc2cc(OC)ccc2cc1C#N .
-- reply inactive

-- ask Each compound tested received a call. Report the one for Clc1ccc2[nH]c3c(NCC4CCCO4)ncnc3c2c1 (configuration not stated) .
-- reply inactive

-- ask Each compound tested received a call. Report the one for O=C(NC1CCCC1)C(c1ccsc1)N(C(=O)Cc1cccs1)c1ccc(F)cc1 (configuration not stated) .
-- reply inactive

-- ask Each compound tested received a call. Report the one for O=C(OCn1ncc(Cl)c(Cl)c1=O)c1ccccc1Cl .
-- reply active

-- ask Each compound tested received a call. Report the one for C/C(=N\N=C(/N)SC1CC(=O)N(c2ccc(Cl)c(Cl)c2)C1=O)c1cccs1 (configuration not stated) .
-- reply active

-- ask Each compound tested received a call. Report the one for O=C(Nc1nnc(-c2ccc3c(c2)CCCC3)o1)c1ccccc1Cl .
-- reply inactive

-- ask Each compound tested received a call. Report the one for O=[N+]([O-])c1cc(C(F)(F)F)ccc1N/N=C/c1cc2ccccc2nc1Cl .
-- reply inactive

-- ask Each compound tested received a call. Report the one for COc1ccc(C2CC(=O)C3=C(C2)NC(C)=C(C(=O)Nc2ccccc2C)C3c2coc3ccc(C)cc3c2=O)cc1OC (configuration not stated) .
-- reply inactive

-- ask Each compound tested received a call. Report the one for COc1ccc(-c2nnc(CSc3nc4ccccc4c(=O)n3C)o2)cc1OC .
-- reply inactive

-- ask Each compound tested received a call. Report the one for Cc1ccc(C(=O)OCn2ncc(Cl)c(Cl)c2=O)cc1 .
-- reply active

-- ask Each compound tested received a call. Report the one for CCSc1nnc(NC(=O)NCC(F)(F)F)s1 .
-- reply inactive

-- ask Each compound tested received a call. Report the one for COCCCNc1ccnc2c(Cl)cccc12 .
-- reply inactive

-- ask Each compound tested received a call. Report the one for CCN(CC)CCCN(Cc1cc2cc3c(cc2[nH]c1=O)OCCO3)C(=O)Nc1ccc(F)cc1 .
-- reply inactive

-- ask Each compound tested received a call. Report the one for CCN1C(=O)c2ccc(C(=O)NCc3ccccc3)cc2C1=O .
-- reply inactive

-- ask Each compound tested received a call. Report the one for Nc1ccc(Oc2ccc3nc(-c4ccccc4)c(-c4ccccc4)nc3c2)cc1 .
-- reply inactive

-- ask Each compound tested received a call. Report the one for Clc1cc(Br)ccc1OCCOCCN1CCOCC1 .
-- reply active

-- ask Each compound tested received a call. Report the one for CCCn1nc([N+](=O)[O-])c(C(C#N)c2nc3ccccc3s2)c(Cl)c1=O (configuration not stated) .
-- reply inactive

-- ask Each compound tested received a call. Report the one for CCC(C)(C)NC(=O)CN(C(=O)CCC(=O)Nc1ccccn1)c1ccc(F)c(Cl)c1 .
-- reply inactive

-- ask Each compound tested received a call. Report the one for O=C(Nc1nnc(-c2ccccc2)o1)c1ccc(Cl)cc1 .
-- reply inactive

-- ask Each compound tested received a call. Report the one for NC(=O)c1c(NC(=O)CN2C(=O)CCC2=O)sc2c1CCCCC2 .
-- reply inactive

-- ask Each compound tested received a call. Report the one for CCN(CC)c1ccc(-c2nc3cnccc3n2C)cc1 .
-- reply inactive

-- ask Each compound tested received a call. Report the one for COc1ccc(NC(=S)NC(NC(=O)c2ccc(Cl)cc2Cl)C(Cl)(Cl)Cl)c([N+](=O)[O-])c1 (configuration not stated) .
-- reply inactive

-- ask Each compound tested received a call. Report the one for O=S(=O)(Cc1ccccc1Cl)N1CCN(Cc2ccc3c(c2)OCO3)CC1 .
-- reply active

-- ask Each compound tested received a call. Report the one for CC(C)c1ccc(C(=O)CSc2n[nH]c(-c3ccncc3)n2)cc1 .
-- reply active

-- ask Each compound tested received a call. Report the one for O=C(c1ccco1)N1CCN(c2ncnc3c2[nH]c2ccccc23)CC1 .
-- reply inactive

-- ask Each compound tested received a call. Report the one for O=C(Cc1cccs1)Nc1nc2c(s1)CCCC2 .
-- reply inactive

-- ask Each compound tested received a call. Report the one for O=C1CC(N2CCN(c3ccc(Cl)c(Cl)c3)CC2)C(=O)N1 (configuration not stated) .
-- reply inactive

-- ask Each compound tested received a call. Report the one for CC1CC(C)CN(CCOc2ccc(Cl)cc2Cl)C1 (configuration not stated) .
-- reply active

-- ask Each compound tested received a call. Report the one for O=C(Nc1cc(C(F)(F)F)ccc1-n1cncn1)c1ccc(-c2ccccc2)cc1 .
-- reply inactive

-- ask Each compound tested received a call. Report the one for Clc1ccc(Cn2nnc(-c3ccc(CN4CCOCC4)cc3)n2)cc1 .
-- reply active

-- ask Each compound tested received a call. Report the one for O=C(OCn1ncc(Cl)c(Cl)c1=O)c1ccc(C(F)(F)F)cc1 .
-- reply active

----------
test system: S. cerevisiae vps1Δ apl2Δ growth inhibition, dose response; assay: growth inhibition of vps1Δ apl2Δ yeast, dose response, post-Golgi transport modulator project, S. cerevisiae, background strain comparison (AID 788)
Calls of active or inactive are those of the source. How the calls were made is not given here.
Outcome field: choose from active, inactive

-- ask Each compound tested received a call. Report the one for Cc1ccc2cc(CN(CCO)Cc3nnnn3Cc3ccc(F)cc3)c(=O)[nH]c2c1 .
-- reply inactive

-- ask Each compound tested received a call. Report the one for Cc1ccc(CN2CCN(/N=C/c3cc(Br)ccc3O)CC2)cc1 .
-- reply active

-- ask Each compound tested received a call. Report the one for O=C(NCC1COc2ccccc2O1)c1ccc(Cl)cc1 (stereo not drawn) .
-- reply active

-- ask Each compound tested received a call. Report the one for CC1CCCCC1NC(=O)CSc1nnnn1-c1ccccc1 (stereo not drawn) .
-- reply inactive

-- ask Each compound tested received a call. Report the one for O=C(CCC(=O)OCC(=O)c1ccc(F)cc1)NC1CCCCC1 .
-- reply inactive

-- ask Each compound tested received a call. Report the one for COc1cccc(NC(=O)c2ccc(CN3CCN(c4ccccc4)CC3)cc2)c1 .
-- reply inactive

-- ask Each compound tested received a call. Report the one for COCCCn1c2nc3ccccc3nc2c2c(=O)n(-c3ccccc3OC)cnc21 .
-- reply inactive

-- ask Each compound tested received a call. Report the one for O=C(N/N=C/c1ccc(OC(=O)c2ccccc2)cc1)c1ccc(CN2CCOCC2)cc1 .
-- reply inactive

-- ask Each compound tested received a call. Report the one for N#Cc1cn(-c2ccccc2)nc1-c1cc2ccccc2oc1=O .
-- reply inactive

-- ask Each compound tested received a call. Report the one for Cc1ccc(Cl)c(OCCCCN(C)Cc2ccccc2)c1 .
-- reply active

-- ask Each compound tested received a call. Report the one for Cc1cccc(CS(=O)(=O)Cc2ccc(C(=O)NCCCN3CCCC3)o2)c1 .
-- reply inactive

-- ask Each compound tested received a call. Report the one for Cn1c2ccc(Cl)cc2c2nc3ccccc3nc21 .
-- reply inactive

-- ask Each compound tested received a call. Report the one for O=C(Nc1cccc(Cl)c1)N1CCN(C/C=C/c2ccccc2)CC1 .
-- reply inactive

-- ask Each compound tested received a call. Report the one for CCN(CC)CCn1nc(C)nc1-c1ccccc1O .
-- reply inactive

-- ask Each compound tested received a call. Report the one for O=C(Cn1ncc2c3ccccc3n(Cc3ccccc3F)c2c1=O)N1CCC2(CC1)OCCO2 .
-- reply inactive

-- ask Each compound tested received a call. Report the one for CCOC(=O)c1cc2c(ccn2C)n1CC(=O)N1CCN(c2ccccc2OC)CC1 .
-- reply inactive

-- ask Each compound tested received a call. Report the one for COc1ccc(Cl)cc1NC(=O)C(C)N1CCN(C/C=C/c2ccccc2)CC1 (stereo not drawn) .
-- reply active

-- ask Each compound tested received a call. Report the one for COc1ccc(-c2cc(N)n(S(=O)(=O)c3c(F)c(F)c(F)c(F)c3F)n2)cc1OC .
-- reply inactive

-- ask Each compound tested received a call. Report the one for c1ccc(-c2ccc(-c3cnc4n3CCCCC4)cc2)cc1 .
-- reply inactive

-- ask Each compound tested received a call. Report the one for Cc1cc(=O)[nH]c(SCC(=O)c2ccc(C)c(C)c2)n1 .
-- reply active

-- ask Each compound tested received a call. Report the one for Cc1nnc(-c2cccc(Br)c2)c2cn(-c3ccccc3Cl)nc12 .
-- reply active

-- ask Each compound tested received a call. Report the one for CCOC(=O)C1=C(CSc2nc(-c3ccccc3)ccc2C#N)OC(N)=C(C#N)C1c1cccnc1 (stereo not drawn) .
-- reply inactive

-- ask Each compound tested received a call. Report the one for O=C1C=C(c2ccccc2)C(=O)N1Nc1ccccc1 .
-- reply active

----------
test system: S. cerevisiae vps1Δ apl2Δ growth inhibition, dose response; test: growth inhibition of vps1Δ apl2Δ yeast, dose response, post-Golgi transport modulator project, S. cerevisiae, background strain comparison (AID 788)
The source made the active and inactive calls. The rule behind the calls is not given here.
Outcome field: choose from active, inactive

-- ask Each compound tested received a call. Report the one for OC(COCc1ccc(Cl)cc1)CN1CC=C(c2ccccc2)CC1 (stereo unspecified) .
-- reply active

-- ask Each compound tested received a call. Report the one for CC(Sc1ccsc1[N+](=O)[O-])C(=O)NCCc1ccc(Cl)cc1 (stereo unspecified) .
-- reply inactive

-- ask Each compound tested received a call. Report the one for O=C1c2ccccc2C(=O)c2c1oc(C(F)(F)F)c2C(=O)c1ccccc1 .
-- reply inactive

-- ask Each compound tested received a call. Report the one for CCN1CCN(c2c(Cl)cccc2NC(=O)c2ccc(Br)o2)CC1 .
-- reply inactive

-- ask Each compound tested received a call. Report the one for Cc1cc(O)c(/C=N/Nc2ccc(Cl)cc2)c(=O)o1 .
-- reply active

-- ask Each compound tested received a call. Report the one for COc1ccc(OCCSc2nnc3sc4ccccc4n23)cc1 .
-- reply inactive
